Recorded values, source patent US6686382B2.

Molecular target: human ETA receptors (Homo sapiens, UniProt P25101)
Construct: endogenous in cells; host or cells: TE 671 cells (ATCC HTB 139), membrane preparation
Sequence (P25101 21-427): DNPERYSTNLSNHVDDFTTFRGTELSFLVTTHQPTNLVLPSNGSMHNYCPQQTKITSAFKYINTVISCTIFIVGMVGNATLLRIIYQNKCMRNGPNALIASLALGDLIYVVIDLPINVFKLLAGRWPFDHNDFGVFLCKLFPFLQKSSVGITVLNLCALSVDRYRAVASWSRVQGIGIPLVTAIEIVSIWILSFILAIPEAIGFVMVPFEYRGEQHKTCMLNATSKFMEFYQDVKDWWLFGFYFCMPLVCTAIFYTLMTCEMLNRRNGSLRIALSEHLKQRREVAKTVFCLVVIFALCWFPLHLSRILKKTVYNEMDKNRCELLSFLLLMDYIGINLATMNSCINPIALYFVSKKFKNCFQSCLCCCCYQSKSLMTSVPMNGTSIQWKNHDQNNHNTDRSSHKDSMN
Assay: Endothelin binding inhibition, Binding Test #1: inhibition of binding to ETA receptors (TE 671 cell membranes)
Details: relative to N-(4-chloro-3-methyl-5-isoxazolyl)-2-{[3,4-(methylenedioxy)-6-methylphenyl)acetyl]-thiophene-3-sulfonamide (= 1.0)
Excerpt: Compounds that are potential endothelin antagonists are identified by testing their ability to compete with ^125I-labeled ET-1 for binding to human ETA receptors or ETB receptors present on isolated cell membranes. The effectiveness of the test compound as an antagonist or agonist of the biological tissue response of endothelin can also be assessed by measuring the effect on endothelin induced contraction of isolated rat thoracic aortic rings. […]
So I've got a bunch of compounds here, and I need their ETA ACTIVITY (ETA antagonist activity relative to reference compound) values.
Give bare numbers.

Answered examples (3):
Compound	Val
COC(=O)c1c(C)cc(C)c(NC(=O)c2sccc2S(=O)(=O)Nc2onc(C)c2Cl)c1C	4.7
Cc1cc(C)c(OCC2CC2)c(C)c1NC(=O)c1sccc1S(=O)(=O)Nc1onc(C)c1Cl [Compound 26]	9.4
CO/N=C(\C)c1cc(C)cc(C)c1NC(=O)c1sccc1S(=O)(=O)Nc1onc(C)c1Cl [Compound 22]	23.6

Give one value of ETA ACTIVITY (ETA antagonist activity relative to reference compound) per listed compound.
1. Cc1cc(C)c(NC(=O)c2sccc2S(=O)(=O)Nc2onc(C)c2Cl)c(C#N)c1C [Compound 32]
2. Cc1cc(C)c(NC(=O)c2sccc2S(=O)(=O)Nc2onc(C)c2Cl)c(-c2ncco2)c1 [Compound 44]
3. CC(=O)c1c(C)c(C)cc(C)c1NC(=O)c1sccc1S(=O)(=O)Nc1onc(C)c1Cl [Compound 30]

### Response
[55.7, 17.9, 103.8]

Give one value of ETA ACTIVITY (ETA antagonist activity relative to reference compound) per listed compound.
1. Cc1cc(C)c(NC(=O)c2sccc2S(=O)(=O)Nc2onc(C)c2Cl)c(C)c1
2. CCCc1c(O)c(C(C)=O)cc(C(C)=O)c1NC(=O)c1sccc1S(=O)(=O)Nc1onc(C)c1Cl [Compound 36]

### Response
2.4
0.1
